- target_or_test_system: Human immunodeficiency virus type 1 protease (Human immunodeficiency virus 1) (UniProt Q72874)
- measurement_description: The compound was evaluated for irreversible inhibition of HIV-1 protease at 20 uM
Each entry below carries its reported inhibition.
Unit % implied. Number only.

compound	assay_readout	quantitative_readout
CC(C)C(NC(=O)OCc1ccccc1)C(=O)OC[C@@H]1O[C@@H]1COc1ccc([N+](=O)[O-])cc1 (stereo not given in full)	inhibition	88
COC(=O)C(NC(=O)[C@@H]1O[C@@H]1COc1ccc([N+](=O)[O-])cc1)C(C)C (stereo not given in full)	inhibition	22
COC(=O)C(CC(C)C)NC(=O)[C@@H]1O[C@@H]1CCc1ccccc1 (stereo not given in full)	inhibition	19

Record CC(C)C(NC(=O)OCc1ccccc1)C(=O)NC(C(=O)OC[C@@H]1O[C@@H]1COc1ccc([N+](=O)[O-])cc1)C(C)C (stereo not given in full) . Reported inhibition: 25

Record COC(=O)C(CC(C)C)NC(=O)[C@@H]1O[C@@H]1COc1ccc([N+](=O)[O-])cc1 (stereo not given in full) . Reported inhibition: 30

Each recorded value in this set is attributed to ChEMBL document CHEMBL1149993.
